system: Propionibacterium acnes ATCC 6919; assay: MIC, agar dilution method NCCLS M11-A6, Brucella agar, anaerobic (Table 9, superscript c); type: cell-based; settings: ATCC 6919
Non-standard residues stand in square brackets, D forms with d. Residues, ends and D or L forms follow the SMILES beside them. *: point of attachment. Lauroyl = CCCCCCCCCCCC(=O)*
testReadout: MIC P. acnes (c ug/mL)
Please give a number only; it is taken to be in c ug/mL.

query: Would you kindly share the measured MIC P. acnes for CCCCCCCCCCCC(=O)N[C@H](CCCNC(=N)N)C(=O)N[C@H](CO)C(=O)N[C@H](CCCNC(=N)N)C(=O)N[C@H](Cc1c[nH]c2ccccc12)C(=O)N[C@H](CCCNC(=N)N)C(=O)N[C@H](CC(=O)O)C(=O)N[C@@H](C(=O)N[C@H](C)C(=O)N[C@H](CCCNC(=N)N)C(=O)N[C@H](CC(=O)O)C(=O)N[C@H](Cc1ccccc1)C(=O)N[C@H](CCSC)C(=O)N[C@H](CCCNC(=N)N)C(N)=O)C(C)C [Peptide 249, Lauryl-rsrwrdvardfmr-NH2] (Lauroyl-[dR][dS][dR][dW][dR][dD][dV][dA][dR][dD][dF][dM][dR]-NH2) ?
result: 8

---

system: Propionibacterium acnes ATCC 6919; test: MIC, agar dilution method NCCLS M11-A6, Brucella agar, anaerobic (Table 9, superscript c); assay type: cell-based; details: ATCC 6919
Non-standard residues stand in square brackets, D forms with d. Residues, ends and D or L forms follow the SMILES beside them. *: point of attachment. Lauroyl = CCCCCCCCCCCC(=O)*; Octanoyl = CCCCCCCC(=O)*
Kindly supply the reported MIC P. acnes values for the records listed here.
Please give a number only; it is taken to be in c ug/mL.

query: Would you kindly share the measured MIC P. acnes for CCCCCCCC(=O)N[C@H](CCCNC(=N)N)C(=O)N[C@H](CO)C(=O)N[C@H](CCCNC(=N)N)C(=O)N[C@H](Cc1c[nH]c2ccccc12)C(=O)N[C@H](CCCNC(=N)N)C(=O)N[C@H](CC(=O)O)C(=O)N[C@@H](C(=O)N[C@H](C)C(=O)N[C@H](CCCNC(=N)N)C(=O)N[C@H](CC(N)=O)C(=O)N[C@H](Cc1ccccc1)C(=O)N[C@H](CC(C)C)C(=O)N[C@H](CCCNC(=N)N)C(N)=O)C(C)C [Peptide 252, Octyl-rsrwrdvarnflr-NH2] (Octanoyl-[dR][dS][dR][dW][dR][dD][dV][dA][dR][dN][dF][dL][dR]-NH2) ?
result: 16

query: Next up: CCCCCCCCCCCC(=O)N[C@H](CCCNC(=N)N)C(=O)N[C@H](Cc1c[nH]c2ccccc12)C(=O)N[C@H](CCCNC(=N)N)C(=O)N[C@H](C)C(=O)N[C@H](CC(C)C)C(=O)N[C@H](C)C(=O)N[C@H](CCCNC(=N)N)C(N)=O [Peptide 245, Lauryl-rwralar-NH2] (Lauroyl-[dR][dW][dR][dA][dL][dA][dR]-NH2)
result: 8

---

test system: Pseudomonas aeruginosa ATCC 27853; assay: MIC, NCCLS M7-A6 broth microdilution (Table 9, no superscript); type: cell-based; details: ATCC 27853
Non-standard residues stand in square brackets, D forms with d. Residues, ends and D or L forms follow the SMILES beside them. *: point of attachment. Lauroyl = CCCCCCCCCCCC(=O)*
testReadout: MIC P. aeruginosa

query: Would you kindly share the measured MIC P. aeruginosa for CCCCCCCCCCCC(=O)N[C@H](CCCNC(=N)N)C(=O)N[C@H](CO)C(=O)N[C@H](CCCNC(=N)N)C(=O)N[C@H](C)C(=O)N[C@H](CCCNC(=N)N)C(=O)N[C@H](CC(=O)O)C(=O)N[C@@H](C(=O)N[C@H](C)C(=O)N[C@H](CCCNC(=N)N)C(=O)N[C@H](CC(N)=O)C(=O)N[C@H](Cc1ccccc1)C(=O)N[C@H](CCSC)C(=O)N[C@H](CCCNC(=N)N)C(N)=O)C(C)C [Peptide 239, Lauryl-rsrardvarnfmr-NH2] (Lauroyl-[dR][dS][dR][dA][dR][dD][dV][dA][dR][dN][dF][dM][dR]-NH2) ?
result: 32 µg/mL

query: Next up: CCCCCCCCCCCC(=O)N[C@H](CCCNC(=N)N)C(=O)N[C@H](CCCCN)C(=O)N[C@H](CCCNC(=N)N)C(=O)N[C@H](Cc1c[nH]c2ccccc12)C(=O)N[C@H](CCCNC(=N)N)C(=O)N[C@H](CCCCN)C(=O)N[C@@H](C(=O)N[C@H](C)C(=O)N[C@H](CCCNC(=N)N)C(=O)N[C@H](CCCCN)C(=O)N[C@H](Cc1ccccc1)C(=O)N[C@H](CC(C)C)C(=O)N[C@H](CCCNC(=N)N)C(N)=O)C(C)C [Peptide 223, Lauryl-rkrwrkvarkflr-NH2] (Lauroyl-[dR][dK][dR][dW][dR][dK][dV][dA][dR][dK][dF][dL][dR]-NH2)
result: 8 µg/mL
